Data origin, for the record: ChEMBL document CHEMBL1201862

Test system: CCRF-CEM
method notes: NCI tumour cell line growth inhibition, 48 h
Active and inactive are the calls of the source. No stated cut-off is given here; in the data, active = GI50 up to about 1.1 µM and inactive = higher.
Answer with one of the outcomes yes (1) for active, no (0) for inactive

INSERT INTO measurements (molecule, assigned_class) VALUES
  ('CCCCc1ccc(Nc2nc(Cl)c3ncn(COCCOC(C)=O)c3n2)cc1', 'no (0)'),
  ('CN1S(=O)(=O)N(C)P12(N=P(CP(=NP13(N(C)S(=O)(=O)N1C)N(C)S(=O)(=O)N3C)(c1ccccc1)c1ccccc1)(c1ccccc1)c1ccccc1)N(C)S(=O)(=O)N2C', 'no (0)');

Exercise: Assay outcome for CC1OC(n2cc(F)c(=O)[nH]c2=O)CCC1=O (stereo not drawn) : what was it?
Solution: no (0)

Exercise: Same question, O=C1N2CCC[C@H]2CS1(=O)=O this time
Solution: no (0)

Exercise: Same question, NC1=NC(c2ccccc2)CC(c2cc(Cl)ccc2O)=N1 (stereo not drawn) this time
Solution: no (0)

Exercise: Same question, C[C@]12CC(c3ccccc3O1)C(C(=O)Nc1nc(C34CC5CC(CC(C5)C3)C4)cs1)C(=O)N2 (stereo partly drawn) this time
Solution: no (0)

----------
Reported values of GI50 for individual entries
Tested on: NCI-H460
method notes: NCI tumour cell line growth inhibition, 48 h
Calls of active or inactive are those of the source. No stated cut-off is given here; in the data, active = GI50 up to about 1.1 µM and inactive = higher.

Solved cases (2 shown):
INSERT INTO assay_data (compound, value_observed) VALUES
  ('CC1CC2OC(=O)CC2C[C@@H]1O[Si](C)(C)C(C)(C)C (stereo partly drawn)', '75.7 µM (inactive)'),
  ('NCC[Se][Se]CCN', '6.4 µM (inactive)');

Exercise: Form field: GI50 recorded for COC1CC2CCC(C)[C@](O)(O2)C(=O)C(=O)N2CCCCC2C(=O)OC(C(C)CC2CCC(O)C(OC)C2)CC(=O)C(C)C=C(C)C(OC(=O)CN(C)C)C(OC)C(=O)C(C)CC(C)/C=C/C=C/C=C\1C (stereo partly drawn) with NCI-H460 (enter value)
Solution: 6.22 µM (inactive)

----------
System: UO-31
method notes: NCI tumour cell line growth inhibition, 48 h
The source made the active and inactive calls. No stated cut-off is given here; in the data, active = GI50 up to about 1.1 µM and inactive = higher.
Answer with one of the outcomes active, inactive

See these solved cases before continuing.
INSERT INTO results (molecule, target_under_test, assigned_class) VALUES
  ('CCCCCCNC(=O)C(C)C1CCC2(C)C=CC(=O)C(C)=C2C1O (stereo not given)', 'UO-31', 'inactive'),
  ('COC12C=CC(C=C1C#N)CC2.COC12C=CC(CC1)CC2=O (stereo not given)', 'UO-31', 'inactive'),
  ('C#CCCCCC#Cc1ccccc1C(=O)OC', 'UO-31', 'inactive'),
  ('N#CC1=C(N)OC2=C(CCCc3ccccc32)C1c1ccc([N+](=O)[O-])cc1 (stereo not given)', 'UO-31', 'inactive'),
  ('COc1ccc(/C=C2\CCC(CN(C)C)C2=O)cc1OC (stereo not given)', 'UO-31', 'inactive');

Exercise: Assay outcome for O=[N+]([O-])c1cccc(/N=C2\c3ccccc3CN2c2cccc([N+](=O)[O-])c2)c1 : what was it?
Solution: inactive

Exercise: Same question, CCOC(=O)c1nc2ccccc2nc1Oc1ccc(F)cc1 this time
Solution: inactive

Exercise: Same question, Cc1ccc(C(=O)Nc2ccc(CP(=O)(O)O)cc2)cc1NC(=O)Nc1cc(C(=O)Nc2ccc(CP(=O)(O)O)cc2)ccc1C this time
Solution: inactive

Exercise: Same question, NC(=O)c1ncn2c1CNC(=O)C2 this time
Solution: inactive

Exercise: Same question, S=c1c2cc(I)ccc2nc(S)n1Cc1ccccc1 this time
Solution: inactive

Exercise: Same question, CCOC(=O)N1CCN(Cc2cc(=O)n3cc(C)ccc3n2)CC1 this time
Solution: inactive

Exercise: Same question, COc1ccc(/C(=N/NC(N)=O)C(c2ccc(OC)cc2)C2C(=O)Oc3ccccc32)cc1 (stereo not given) this time
Solution: inactive

Exercise: Same question, C#CCn1ncc2c(SC)ncnc21 this time
Solution: inactive

Exercise: Same question, CC(C)CCNC(=O)c1ccc(CNC(=O)/C=C/c2csc(-c3ccccc3)n2)cc1 this time
Solution: inactive

Exercise: Same question, COc1cc(/C=C\c2ccccc2)cc(OC)c1OC this time
Solution: inactive

Exercise: Same question, Cc1ccccc1OC(C)C(=O)NN1C(=O)CC(=O)N(c2ccc(Cl)cc2)C1=S (stereo not given) this time
Solution: inactive

Exercise: Same question, Cc1cc2c(cc1Cl)Sc1n[nH]c(=O)n1S2(=O)=O this time
Solution: inactive
